Experiment: chemical genetic growth profiling, strain panel (AID 1159580);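 further: tested at 20 µM; growth read once vehicle control cultures reached saturation at 30 °C; 1 = growth at the plate median or of vehicle wells; lower values mean less growth of the strain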
Details: S. cerevisiae deletion strains, growth OD, locus YLR320W, strain mms22, hits give low values
Hit rate of the full screen: of about 5,500 compounds, about 2,000 (36%) were called active. Another 18% or so got no clear call; they are omitted. Some of the results follow.
endpoint: normalized growth
Answers are plain numbers.

compound: CC1=C2C(=CO[C@H](C)[C@H]2C)C(=O)C(C(=O)O)=C1O
endpoint: normalized growth
data-value: 0.94

Please state normalized growth for every compound in the list that follows.
1. COc1cc2c3cc1Oc1cc(ccc1O)C[C@@H]1c4c(cc(OC)c(O)c4Oc4ccc(cc4)C[C@@H]3N(C)CC2)CC[N+]1(C)C
2. COC(=O)C1=C(C)NC(C)=C(C(=O)OCC(C)C)C1c1ccccc1[N+](=O)[O-] (centres undefined)

A)
0.967
0.159

Please state normalized growth for every compound in the list that follows.
1. CC(C)=CCc1c2c(c(O)c3c(=O)c(O)c(-c4ccccc4)oc13)C=CC(C)(C)O2
2. ClC(Cl)=C(c1ccc(Cl)cc1)c1ccc(Cl)cc1
3. COc1cc([C@@H]2c3cc4c(cc3[C@H](O)[C@H]3COC(=O)[C@@H]23)OCO4)cc(OC)c1OC
4. COCCOC(=O)C1=C(C)NC(C)=C(C(=O)OC(C)C)C1c1cccc([N+](=O)[O-])c1 (centres undefined)

A)
1: 0.762; 2: 0.967; 3: 1.01; 4: 0.984

Please state normalized growth for every compound in the list that follows.
1. C/C(=C\C(=O)OCCCCCCCCC(=O)O)C[C@@H]1OC[C@H](C[C@@H]2O[C@H]2[C@@H](C)[C@H](C)O)[C@@H](O)[C@H]1O
2. COc1ccc(C(=O)/C=C/c2ccccc2)cc1

A)
[0.968, 0.525]

---

Assay: chemical genetic growth profiling, strain panel (AID 1159580);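 further: tested at 20 µM; growth read once vehicle control cultures reached saturation at 30 °C; 1 = growth at the plate median or of vehicle wells; lower values mean less growth of the strain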
Conditions: S. cerevisiae deletion strains, growth OD, locus YOR184W, strain ser1
Screen size: about 5,500 compounds; about 2,000 (36%) were called active. Not shown: some 18% with an inconclusive outcome. No stated cut-off is given here; in the data, active means normalized growth mostly below about 0.91 (no sharp cut-off); inconclusive means no clear call, values can overlap the other calls; inactive means mostly above about 0.92. Some of the results follow.
Outcomes you can answer with include only these: true (1) (active), false (0) (inactive)

compound: Cc1cc(=O)c2c(O)c3c(cc2o1)OCC(C)CC3 (centres undefined)
class: true (1)
--
compound: COc1ccc(-c2coc3cc(OC)cc(O)c3c2=O)cc1
class: true (1)
--
compound: CC1=NCCc2c1[nH]c1cc(O)ccc21
class: false (0)

Q) What classification did C[C@@H]1CC[C@@]2(OC1)OC1C(O)C3C4CC[C@H]5C[C@H](O[C@@H]6O[C@H](CO)[C@H](O[C@@H]7O[C@H](CO)[C@@H](O)[C@H](O[C@@H]8OC[C@@H](O)[C@H](O)[C@H]8O)[C@H]7O[C@@H]7O[C@H](CO)[C@H](O)[C@H](O[C@@H]8O[C@H](CO)[C@@H](O)[C@H](O)[C@H]8O)[C@H]7O)[C@H](O)[C@H]6O)[C@H](O)C[C@]5(C)C4CC[C@]3(C)C1[C@@H]2C (some centres undefined) end up with in this test?
A) true (1)

Q) What classification did `COc1cc2cc[n+]3cc4c(OC)c(OC)ccc4cc3c2cc1OC` end up with in this test?
A) false (0)

Q) What classification did `Cc1coc2ccccc2c1=O` end up with in this test?
A) false (0)

---

Assay: chemical genetic growth profiling, strain panel (AID 1159580);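 further: tested at 20 µM; growth read once vehicle control cultures reached saturation at 30 °C; 1 = growth at the plate median or of vehicle wells; lower values mean less growth of the strain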
Settings: S. cerevisiae deletion strains, growth OD, locus YDL134C, strain PPH21, hits give low values
Hit rate of the full screen: of about 5,500 compounds, about 2,000 (36%) were called active. Roughly 18% stayed inconclusive and do not appear here. The list shows a part of the results.
endpoint: normalized growth

Known normalized growth results, listed for orientation:
compound: NCCc1cccc(O)c1
normalized growth: 0.984 (inactive)

compound: CCC(CCC(C)[C@H]1CCC2C3CC=C4C[C@@H](O)CC[C@]4(C)C3CC[C@@]21C)C(C)C (stereo not given in full)
normalized growth: 0.97 (inactive)

compound: Clc1ccc(Cl)cc1
normalized growth: 1 (inactive)

Please state normalized growth for every compound in the list that follows.
1. CC(=O)[C@H]1CCC2C3CC=C4C[C@@H](O)CC[C@]4(C)C3CC[C@@]21C (stereo not given in full)
2. CCCCCCCCCc1ccc(O)cc1
3. CN(C)CCC=C1c2ccccc2C=Cc2ccccc21
4. C[N+]1(CCCCC[N+]2(C)CCCC2)CCCC1
5. CCCCC1C(=O)N(c2ccccc2)N(c2ccccc2)C1=O
6. Nc1ccc(C(=O)Oc2ccccc2)c(O)c1

A)
1: 0.957 (inactive); 2: 0.0971 (active); 3: 0.996 (inactive); 4: 1.01 (inactive); 5: 0.986 (inactive); 6: 0.837 (active)

Please state normalized growth for every compound in the list that follows.
1. COc1cc([C@@H]2c3cc4c(cc3[C@H](O)[C@H]3COC(=O)[C@@H]23)OCO4)cc(OC)c1OC
2. FC(F)(F)c1ccc(-c2nc(-c3ccc4c(c3)OCCCO4)cs2)cc1
3. COCCOC(=O)C1=C(C)NC(C)=C(C(=O)OC(C)C)C1c1cccc([N+](=O)[O-])c1 (stereo not given)
4. CCC1C2CC3C4N(C)c5ccccc5C45CC(C2C5OC(C)=O)N3C1OC(C)=O (stereo not given)

A)
["1.03 (inactive)", "1 (inactive)", "1.01 (inactive)", "1.02 (inactive)"]

Please state normalized growth for every compound in the list that follows.
1. CCCN1C[C@H](CSC)C[C@@H]2c3cccc4[nH]cc(c34)C[C@H]21
2. O=C1CCCc2c1c1ccccc1n2Cc1ccccc1
3. Nc1ccc(C(=O)O)c(O)c1
4. COc1cccc(-c2cc(=O)c3ccc(OC)cc3o2)c1
5. ClC(Cl)=C(c1ccc(Cl)cc1)c1ccc(Cl)cc1
6. C=CCc1ccccc1OCC(O)CNC(C)C (stereo not given)

A)
1. 1.01 (inactive)
2. 0.989 (inactive)
3. 1 (inactive)
4. 0.978 (inactive)
5. 0.967 (inactive)
6. 1.01 (inactive)

Please state normalized growth for every compound in the list that follows.
1. C=C1C2CC[C@@]3(C)[C@H](c4ccoc4)OC(=O)C[C@]13O[C@H]1CC(=O)C(C)(C)[C@H](C(O)C(=O)OC)[C@@]21C (stereo not given in full)
2. C=C1C(N)CC2CC1C2(C)C (stereo not given)
3. CN1CCc2c(c3ccccc3n2Cc2ccccc2)C1
4. CCCCCn1c(Sc2ncc([N+](=O)[O-])s2)n[nH]c1=O
5. Clc1cccc(-c2csc(Nc3cccnc3)n2)c1

A)
1.01 (inactive)
1.03 (inactive)
0.987 (inactive)
0.099 (active)
0.997 (inactive)

Please state normalized growth for every compound in the list that follows.
1. CC(=O)CC(c1ccccc1)c1c(O)c2ccccc2oc1=O (stereo not given)
2. O=C1CC[C@]23C=CC(=O)NCCCCNCCCNC(=O)/C=C/c4ccc(c2c4)O[C@@H]3C1
3. CC(=O)O[C@H]1C[C@H](O[C@H]2[C@@H](O)C[C@H](O[C@H]3[C@@H](O)C[C@H](O[C@H]4CC[C@@]5(C)C(CCC6C5C[C@@H](O)[C@]5(C)[C@@H](C7=CC(=O)OC7)CC[C@]65O)C4)O[C@@H]3C)O[C@@H]2C)O[C@H](C)[C@H]1O[C@@H]1O[C@H](CO)[C@@H](O)[C@H](O)[C@H]1O (stereo not given in full)
4. CN(C)CC/C=C1/c2ccccc2COc2ccccc21
5. CC(C)(C)OC(=O)NC1CCN(C(=O)c2ccc(Cl)cc2Cl)CC1
6. CC(=O)Nc1ccc(OC(=O)c2ccccc2O)cc1
7. O=C(/C=C/c1ccccc1)c1ccc(O)cc1
8. COc1cccc(-c2cc(=O)c3cc(OC)ccc3o2)c1

A)
["1.01 (inactive)", "0.954 (inactive)", "1.02 (inactive)", "1.01 (inactive)", "0.999 (inactive)", "0.878 (active)", "0.661 (active)", "0.95 (inactive)"]

Please state normalized growth for every compound in the list that follows.
1. COc1ccc(-c2cc(=O)c3c(OC(C)=O)cc(OC(C)=O)cc3o2)cc1
2. COC(=O)C1=C(C)NC(C)=C(C(=O)OCCN(C)Cc2ccccc2)C1c1cccc([N+](=O)[O-])c1 (stereo not given)
3. CC1=NCCc2c1[nH]c1cc(O)ccc21
4. Cn1c(=O)c2[nH]c(C3CCCC3)nc2n(C)c1=O
5. O=c1c2ccccc2oc2ccc(O)cc12
6. COc1cc(NC(=O)NS(=O)(=O)c2ccc(C)cc2)cc(C(F)(F)F)c1
7. O=c1[nH]c2cc(Cl)c(Cl)cc2[nH]c1=O
8. COc1ccc(-c2coc3cc(O)cc(O)c3c2=O)cc1

A)
0.956 (inactive)
0.976 (inactive)
0.988 (inactive)
1.01 (inactive)
0.759 (active)
1 (inactive)
1.01 (inactive)
0.295 (active)

Please state normalized growth for every compound in the list that follows.
1. O=C(O)c1nc2cc(Cl)c(Cl)cc2[nH]c1=O
2. NCCc1ccc(O)c(O)c1
3. CC1(C)O[C@@H]2CC3C4C[C@H](F)C5=CC(=O)C=CC5(C)C4C(O)CC3(C)[C@]2(C(=O)CO)O1 (stereo not given in full)
4. N#Cc1ccc([N+](=O)[O-])s1

A)
1. 1 (inactive)
2. 1.04 (inactive)
3. 1.02 (inactive)
4. 0.0493 (active)

Query `CC(C)(Oc1ccc(Cl)cc1)C(=O)O` yields normalized growth of 1 (inactive)
